Test: Mouse pharmacokinetic (PK) evaluation of drug metabolism to psilocin
Conditions: male, C57Bl/6, mouse, plasma, intravenous, 1 mg/kg, Plasma concentration of administered (parent) compound, 1 mg/kg i.v.; 5 min; mean ± SD
parameter: concentration at 5 min (ng/mL)
Provide the reading as a plain figure in ng/mL.

Reported concentration at 5 min for CN(C)CCc1c[nH]c2cccc(OP(=O)(O)O)c12 [psilocybin, reference compound] was 144

====

Experiment: Mouse pharmacokinetic (PK) evaluation of drug metabolism to psilocin
Settings: male, C57Bl/6, mouse, plasma, iv, 1 mg/kg, Cmax (parent compound in plasma), 1 mg/kg i.v.; mean ± SD
parameter: Cmax
Write the numeric value and follow it with the unit.

Reported Cmax for CN(C)CCc1c[nH]c2cccc(OP(=O)(O)O)c12 [psilocybin, reference compound] was 144 ng/mL
